# assayOverview: NCI Yeast Anticancer Drug Screen. Data for the cln2 rad14 strain (AID 165);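 also: 0% = growth equal to vehicle treated cultures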
# reportedConditions: S. cerevisiae cln2 rad14 strain, at 5.0 µM (retest, dose inferred, filed as 0.5)
About 79,000 compounds went through this panel and 15% of them were active in at least one assay; those are over-represented in the sample as a whole. Activity calls are given as the source filed them. Rule as the data show it: active = growth inhibition above about 70%; inactive = the rest.
Just give me one of these, please: t = active, f = inactive

Worked cases, answers included:
O=C1C=C(c2cccc(-c3ccccc3)c2)CCC1; f
Clc1ccc(OCCC(Cn2ccnc2)c2ccc(Cl)cc2Cl)c(Cl)c1 (stereo not given); t
O=C(/C=C/c1ccccc1)NOC(=O)/C=C/c1ccccc1; f
CCNC(=S)N/N=C/c1ccccn1; f

input: I'd appreciate the recorded outcome for CCCCC1=NCCc2c1cc1c([nH]c3ccccc31)c2C from this test.
output: f

input: I'd appreciate the recorded outcome for O=C1N(Cc2ccccc2)CC1(c1ccccc1)C1CCCCC1O (stereo not given) from this test.
output: f

input: I'd appreciate the recorded outcome for C/C(=N\NC(=O)C[n+]1ccccc1)c1sc(-c2nc(C)c(/C(C)=N/NC(=O)C[n+]3ccccc3)s2)nc1C from this test.
output: t

input: I'd appreciate the recorded outcome for C=C(CN(C)C)C(=O)c1ccccc1Cl from this test.
output: f

input: I'd appreciate the recorded outcome for COC(=O)N/N=C(\C)C(CN1CCOCC1)C(c1ccccc1)c1cc2ccccc2oc1=O (stereo not given) from this test.
output: f

* * *

# assayOverview: NCI Yeast Anticancer Drug Screen. Data for the bub3 strain (AID 167)
# reportedConditions: S. cerevisiae bub3 mutant strain, at 5.0 µM (retest, dose inferred, filed as 0.5)
Compounds without any hit were thinned out: in the full panel of roughly 79,000, 15% have a hit. Calls of active or inactive are those of the source. Rule as the data show it: active = growth inhibition above about 70%; inactive = the rest.
Just give me one of these, please: 1 (yes) (active), 0 (no) (inactive)

input: I'd appreciate the recorded outcome for CCCCCCCCCCCCSCCCN from this test.
output: 0 (no)

* * *

# assayOverview: NCI Yeast Anticancer Drug Screen. Data for the sgs1 mgt1 strain (AID 161);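 also: 0% = growth of cultures given vehicle only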
# reportedConditions: S. cerevisiae sgs1 mgt1 strain, at 50.0 µM, hits give high values
This is part of a sample that, as a whole, favours compounds with a hit. Of some 79,000 tested, about 15% had one in any assay.
Each record's class is read off its growth inhibition using these ranges: bucket A: < 40%; bucket B: ≥ 40% and < 90%; bucket C: ≥ 90%

Worked cases, answers included:
COc1cccc2c1S(=O)(=O)C(c1ccccc1)=CC2=O; bucket C
COc1cc(C2CC(C)(OC)Oc3cc4c(cc32)OCO4)cc(OC)c1O (stereo not drawn); bucket A
[Cu+2].[NH-]c1ccccc1O.[NH-]c1ccccc1[OH2+]; bucket B
O=C(CC(O)(CC(=O)OCc1ccccc1)C(=O)OCc1ccccc1)OCc1ccccc1; bucket C
CCCC(=O)NCCNC(=O)CCC; bucket A

input: Which growth inhibition band matches COc1ccc(CN2CCCN(Cc3ccc(OC)cc3OC)C2c2cc(Cl)ccc2O)c(OC)c1 ?
output: bucket A

input: Which growth inhibition band matches N#C/C(=C\C(Cl)=C/c1ccccc1)C(N)=S ?
output: bucket B

input: Which growth inhibition band matches CCCc1nc2ccccc2c(=O)n1/N=C/c1ccccc1O ?
output: bucket B

input: Which growth inhibition band matches Cc1cccc2c(CC(=O)O)c[nH]c12 ?
output: bucket C

input: Which growth inhibition band matches Nc1ncnc2c1c(-c1ccccc1)cn2-c1ccccc1 ?
output: bucket C

input: Which growth inhibition band matches CCN(CC)CCCC(C)Nc1cc(O)c2c(c1O)C(=O)c1ccccc1C2=O (stereo not drawn) ?
output: bucket C

* * *

Field: growth inhibition. Provide a value for each of the compounds that follow.
# assayOverview: NCI Yeast Anticancer Drug Screen. Data for the mec2-1 strain (AID 157)
# reportedConditions: S. cerevisiae mec2-1 strain, at 5.0 µM (retest, dose inferred, filed as 0.5), hits give high values
The panel holds about 79,000 compounds, 15% with a hit somewhere; the sample as a whole holds those more often.
Answers are plain numbers, in %.

Return reported growth inhibition values for all items listed beneath this line.
1. CCCCCCCCCCCCOc1c(Cl)cc(Cl)c(Cl)c1Cc1c(O)c(Cl)cc(Cl)c1Cl
2. CC(=O)OC[C@@H](OC(C)=O)[C@H](OC(C)=O)c1cnn(-c2ccccc2)n1
3. CC(C)=CCC/C(C)=C/CC/C(C)=C/CC/C=C(\C)CC/C=C(\C)CCC[N+](C)(C)[O-]
4. O=c1oc2c/c(=C\c3ccccc3)c(=O)c3cccc1c3-2
5. O=c1[nH]c2c([N+](=O)[O-])cc(Cl)cc2nc1/C=C(\O)c1ccco1

output:
1: 0; 2: -1; 3: 17; 4: -2; 5: -5

* * *

# assayOverview: NCI Yeast Anticancer Drug Screen. Data for the mlh1 rad18 strain (AID 175)
# reportedConditions: S. cerevisiae mlh1 rad18 strain growth inhibition; at 5.0 µM (retest, dose inferred, filed as 0.5)
This is part of a sample that, as a whole, favours compounds with a hit. Of some 79,000 tested, about 15% had one in any assay. Calls of active or inactive are those of the source. No stated cut-off is given here; in the data, active means growth inhibition above about 70%; inactive means the rest.
Just give me one of these, please: active, inactive

input: I'd appreciate the recorded outcome for CC1(C)CCCC12C=NCC2 (stereo not given) from this test.
output: inactive

input: I'd appreciate the recorded outcome for OC(Cc1ccc(Br)cc1)CN1CCC(c2ccccc2)CC1 (stereo not given) from this test.
output: active

* * *

# assayOverview: NCI Yeast Anticancer Drug Screen. Data for the bub3 strain (AID 167)
# reportedConditions: S. cerevisiae bub3 mutant strain, at 50.0 µM, hits give high values
This is part of a sample that, as a whole, favours compounds with a hit. Of some 79,000 tested, about 15% had one in any assay.
Each record's class is read off its growth inhibition using these ranges: lower level: < 60%; middle level: ≥ 60% and < 80%; upper level: ≥ 80%

Worked cases, answers included:
O=C(N=Nc1cccc(Cl)c1)NNc1cccc(Cl)c1; upper level
CN(C)c1cc(N(C)C)c2cc(-c3ccccc3)sc2n1; middle level
O=C1O/C(=C\c2ccccc2)c2ccccc21; lower level
Cc1ccc2[nH]c3cc4ccncc4cc3c2c1; upper level
CC(=O)Oc1cccc2c(C(=O)CCl)ccnc12; upper level
O=C1/C(=C/c2ccccc2[N+](=O)[O-])COc2ccccc21; lower level
CCCCCCCCCCn1cc[nH]c1=S; upper level
ClCc1ccc2oc3ccccc3c2c1; lower level

input: Which growth inhibition band matches CCOC(=O)C(CC)(CCc1ccccc1[N+](=O)[O-])C(=O)OCC ?
output: middle level

input: Which growth inhibition band matches Cc1ccc(S(=O)(=O)Nn2c(S)c(C#N)c(-c3ccc([N+](=O)[O-])cc3)c(C#N)c2=O)cc1 ?
output: lower level

* * *

# assayOverview: NCI Yeast Anticancer Drug Screen. Data for the bub3 strain (AID 167)
# reportedConditions: S. cerevisiae bub3 mutant strain, at 50.0 µM (retest, dose inferred, filed as 5.0)
About 79,000 compounds went through this panel and 15% of them were active in at least one assay; those are over-represented in the sample as a whole. Active and inactive are the calls of the source. No stated cut-off is given here; in the data, active means growth inhibition above about 70%; inactive means the rest.
Just give me one of these, please: TRUE for active, FALSE for inactive

Worked cases, answers included:
COc1ccc(C2CC(=O)CC(=O)C2)cc1; FALSE
CCS(=O)(=O)/C=C\S(=O)(=O)CC; FALSE
CC(C)(C)C(OC(=O)Nc1ccccc1)C(C)(C)C; FALSE
O=[N+]([O-])c1ccc2c(c1)[nH]c1ccccc12; FALSE
COC(=O)/C=C1/OC(c2ccccc2)=C(Br)C1=O; FALSE
C#C[C@]1(OC(C)=O)CC[C@H]2[C@@H]3CCC4=CC(=O)CC[C@@H]4[C@H]3CC[C@@]21C; FALSE

input: I'd appreciate the recorded outcome for CCCCCCCCCCCCCC(N)c1ccc(C)cc1 (stereo not drawn) from this test.
output: TRUE

* * *

# assayOverview: NCI Yeast Anticancer Drug Screen. Data for the cln2 rad14 strain (AID 165);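 also: 0% = growth equal to vehicle treated cultures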
# reportedConditions: S. cerevisiae cln2 rad14 strain, at 5.0 µM (retest, dose inferred, filed as 0.5), hits give high values
This is part of a sample that, as a whole, favours compounds with a hit. Of some 79,000 tested, about 15% had one in any assay.
Field: growth inhibition. Provide a value for each of the molecules that follow.
Numbers only, in %.

Cc1ccc(O)c(Cc2cccc(Cl)c2)c1; -21
C=C(CS(=O)(=O)c1ccccc1)[P+](c1ccccc1)(c1ccccc1)c1ccccc1; -1
[Br][Pt+2][Br].[NH-]c1cccc(I)c1.[NH-]c1cccc(I)c1; -1
Oc1cc(O)cc(O)c1; 5
COc1ccc(Cc2cncc3c(O)c(OC)ccc23)cc1O; 2

Return reported growth inhibition values for all items listed beneath this line.
1. COC(=O)C1C(C(=O)OC)C2(OC(c3ccc(Cl)cc3)=CC2=O)C12OC(c1ccc(Cl)cc1)=CC2=O (stereo not given)
2. OC1(c2ccccc2)CCC2CCCCC2C1 (stereo not given)
3. O=S(=O)(Sc1ccccc1)c1ccccc1
4. O=[N+]([O-])c1cc(CNCCO)c(O)c2ncccc12
5. Clc1ccc(CN2COc3c(ccc4ccccc34)C2)cc1
6. CC(=O)OC1COC(n2nnc(C#N)c2C#N)C(OC(C)=O)C1OC(C)=O (stereo not given)

output:
[4, -10, 5, 95, 0, 3]
